- Tested on: Noggin (protein binding on small-molecule microarray)
- Experiment notes: Noggin binders on small-molecule microarray, primary screen, biochemical, 635/667 nm fluorescence (AID 1095);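 further: score merges 667 nm feature fluorescence with signal to noise over triplicate slides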
- Stated conditions: 635 nm fluorescence, higher = more signal
Classification field: enter fulfilled for composite z-score values not below 0.5, not fulfilled for values below it.

Q) Identify whether the reported composite z-score of the following molecule is 0.5 or greater: C=CC(=C)[C@H]1Oc2ccccc2S(=O)(=O)N2CCC[C@@H]12
A) fulfilled

Q) Hi, just wondering whether CO[C@H]1O[C@H](CO)[C@@H](OC(=O)Nc2ccccc2)[C@H](OC(=O)Nc2ccccc2)[C@@H]1OC(=O)Nc1ccccc1 shows composite z-score of 0.5 or higher.
A) fulfilled

Q) # check: composite z-score of CC(=O)n1cc(C(O)C2C=CC3C(=O)N(c4ccccc4)C(=O)C3N2Nc2ccc([N+](=O)[O-])cc2)c2ccccc21 (configuration not stated) is greater than or equal to 0.5
A) not fulfilled

Q) Reported composite z-score at or above 0.5? NC(=O)[C@@H]1[C@H]2C(=O)O[C@H](c3ccccc3)[C@H](c3ccccc3)N2[C@H](c2ccc(O)cc2)[C@@]12C(=O)Nc1ccccc12
A) not fulfilled

Q) composite z-score >= 0.5 for COc1ccc(C(=O)Nc2ccc(CN3C(=O)[C@]4(O[C@H](CCO)[C@@H]([Si](C)(C)c5ccc(OC)cc5)[C@@H]4C)c4ccccc43)cc2)cc1 ?
A) fulfilled

Q) Does composite z-score meet or surpass 0.5 for CCOC(=O)C[C@H]1[C@H](OC(=O)c2ccccc2-c2ccccc2)[C@@H](NC(=O)CC(C)C)c2cc(OCCCO)ccc2N1C(=O)Cc1ccc(OC)cc1 ?
A) not fulfilled

Q) hey, is composite z-score for this one >= 0.5? CO[C@H]1O[C@H](CO)[C@@H](OC(=O)Nc2ccc(Oc3ccccc3)cc2)[C@H](OC(=O)Nc2ccc3c(c2)OCO3)[C@H]1OC(=O)Nc1ccc2c(c1)OCO2
A) not fulfilled
